system: SK-OV-3; test: NCI tumour cell line growth inhibition, 48 h
Calls of active or inactive are those of the source. Rule as the data show it: active = GI50 up to about 1.1 µM and inactive = higher.
Below, each entry is listed alongside its reported GI50.
Property: GI50

[[record]]
compound = "C#C/C=C\\CCCCCCCCCCCCCC/C=C\\CCCCC#CC(O)C#CCCCC/C=C\\CCCCCC/C=C/C(O)C#C (configuration not stated)"
target_or_system = "SK-OV-3"
property = "GI50"
observed_result = "> 75 µM (inactive)"

[[record]]
compound = "OCc1c[te]c(-c2ccccc2)c1"
target_or_system = "SK-OV-3"
property = "GI50"
observed_result = "> 100 µM (inactive)"

[[record]]
compound = "N#Cc1c(Cl)cccc1Oc1ccc(S(=O)(=O)/N=C(\\NN)Nc2ccc(Cl)cc2)cc1"
target_or_system = "SK-OV-3"
property = "GI50"
observed_result = "32.3 µM (inactive)"

[[record]]
compound = "COc1ccccc1-c1cc(O)c2cc(C)cnc2n1"
target_or_system = "SK-OV-3"
property = "GI50"
observed_result = "25.3 µM (inactive)"

[[record]]
compound = "C(=N\\Nc1ccccc1)/c1nc2ccccc2nc1/C=N/Nc1ccccc1"
target_or_system = "SK-OV-3"
property = "GI50"
observed_result = "22 µM (inactive)"

[[record]]
compound = "O=C1OC(C2Cc3cc4c(cc3C2=O)CCC4)c2ccccc21 (configuration not stated)"
target_or_system = "SK-OV-3"
property = "GI50"
observed_result = "21.7 µM (inactive)"

[[record]]
compound = "CC(C)CC1N=C(OCc2ccccc2)OC1=O (configuration not stated)"
target_or_system = "SK-OV-3"
property = "GI50"
observed_result = "> 100 µM (inactive)"

[[record]]
compound = "COc1ccc(C(O)CNC(=O)c2ccccc2)cc1 (configuration not stated)"
target_or_system = "SK-OV-3"
property = "GI50"
observed_result = "> 100 µM (inactive)"

[[record]]
compound = "NC(=S)SCCC(=O)O"
target_or_system = "SK-OV-3"
property = "GI50"
observed_result = "> 100 µM (inactive)"

[[record]]
compound = "COc1cc2ccn3c4cc(OC)c(OC)cc4cc3c2cc1OC"
target_or_system = "SK-OV-3"
property = "GI50"
observed_result = "> 100 µM (inactive)"

[[record]]
compound = "Cc1ccccc1C(C#N)/C(=N/NC(=O)c1cc2ccccc2cc1O)C(=O)Nc1cccc(Cl)c1 (configuration not stated)"
target_or_system = "SK-OV-3"
property = "GI50"
observed_result = "41.8 µM (inactive)"

[[record]]
compound = "O=c1oc2ccccc2cc1-c1cn2c(n1)sc1ccccc12"
target_or_system = "SK-OV-3"
property = "GI50"
observed_result = "> 100 µM (inactive)"

